- System: OVCAR-4
- ASSAY OVERVIEW: NCI tumour cell line growth inhibition, 48 h
Active and inactive are the calls of the source. Rule as the data show it: active = GI50 up to about 1.1 µM and inactive = higher.
Give measured GI50 for each item. Keep answers brief.

Identify the measured GI50 of Cc1c2c(c(O)c3c(O)cccc13)C(=O)C1(O)C(=O)C(C(=O)NCNc3ccc(C(N)=O)cn3)=C(O)C(N(C)C)C1C2 (centres undefined) for OVCAR-4. 1.93 µM (inactive)

Lookup CC(CCc1ccccc1)NCC(O)n1c(/N=N/N(C)C)nc2c1c(=O)n(C)c(=O)n2C (centres undefined) > 100 µM (inactive)

Input "CC(=O)Oc1cc(S(=O)(=O)Nc2n[nH]c(Nc3ccc(C)cc3)n2)c(S)cc1Cl" > 100 µM (inactive)

Same question for "CC(=O)OCc1c(C)c2ccccc2n1C(C)=O" please. 32.1 µM (inactive)
